Measured FPDc (field-potential duration corrected by beat-rate), % change from baseline accompanies every entry in the list below.
System: hiPSC-CMs (iCell-Cardiomyocytes^2)
CONDITION_SUMMARY: 0.1 µM, 72h
Please state the figure in %; there is no need to write the unit.

CCN(CC)CCNC(=O)c1c(C)[nH]c(/C=C2\C(=O)Nc3ccc(F)cc32)c1C; 28.2
Cc1cn(-c2cc(NC(=O)c3ccc(C)c(Nc4nccc(-c5cccnc5)n4)c3)cc(C(F)(F)F)c2)cn1; 12.5
COc1cc2c(Nc3ccc(Br)cc3F)ncnc2cc1OCC1CCN(C)CC1; 52.6

Briefly, FPDc (field-potential duration corrected by beat-rate), % change from baseline measured for COc1cccc2c1C(=O)c1c(O)c3c(c(O)c1C2=O)C[C@@](O)(C(=O)CO)C[C@@H]3O[C@H]1C[C@H](N)[C@H](O)[C@H](C)O1 : -20.4

FPDc (field-potential duration corrected by beat-rate), % change from baseline reading for N=C(N)c1ccc(OCCCCCOc2ccc(C(=N)N)cc2)cc1 : 3

Field FPDc (field-potential duration corrected by beat-rate), % change from baseline (entry O=C(O)COCCN1CCN(C(c2ccccc2)c2ccc(Cl)cc2)CC1 (stereo not drawn) ) reads 7.6

====

Tested on: hiPSC-CMs (iCell-Cardiomyocytes^2)
CONDITION_SUMMARY: 3 µM; 2h
Method: Cells were seeded according to the instructions of the cell provider, in fibronectin-coated 48-well MEA plates (Axion Cytoview Plates, M768-tMEA-48B) at a density suited to form a monolayer (i.e., 50 K/well) and maintained in culture in a stage incubator (37°C, 5% CO2). […] The potential presence of various arrhythmic events was evaluated and noted during the data analysis. […]
Reported FPDc (field-potential duration corrected by beat-rate), % change from baseline values for the following molecules.
// note: answer is a bare numeric in %

N=C(N)c1ccc(OCCCCCOc2ccc(C(=N)N)cc2)cc1 [Pentamidine]; 2.7
COc1nc(N)nc2c1ncn2[C@@H]1O[C@H](COP(=O)(N[C@@H](C)C(=O)OCC(C)(C)C)Oc2cccc3ccccc23)[C@@H](O)[C@@]1(C)O (some centres unmarked) [BMS-986094]; -1.6
COc1cccc2c1C(=O)c1c(O)c3c(c(O)c1C2=O)C[C@@](O)(C(=O)CO)C[C@@H]3O[C@H]1C[C@H](N)[C@H](O)[C@H](C)O1 [Doxorubicin]; 4.3

Data point: CC(C)(Sc1cc(C(C)(C)C)c(O)c(C(C)(C)C)c1)Sc1cc(C(C)(C)C)c(O)c(C(C)(C)C)c1 [Probucol] ; FPDc (field-potential duration corrected by beat-rate), % change from baseline = 4.4

Documented FPDc (field-potential duration corrected by beat-rate), % change from baseline of CC1(C)S[C@@H]2[C@H](NC(=O)[C@H](N)c3ccc(O)cc3)C(=O)N2[C@H]1C(=O)O [Amoxicillin] : 3.1

Recorded result, C[C@H](CS)C(=O)N1CCC[C@H]1C(=O)O [Captopril] , FPDc (field-potential duration corrected by beat-rate), % change from baseline: 1.1

FPDc (field-potential duration corrected by beat-rate), % change from baseline for C#Cc1cccc(Nc2ncnc3cc(OCCOC)c(OCCOC)cc23)c1 [Erlotinib] is 2.4

Reported FPDc (field-potential duration corrected by beat-rate), % change from baseline of O=C(O)COCCN1CCN(C(c2ccccc2)c2ccc(Cl)cc2)CC1 (centres unmarked) [Cetirizine] : 6.1

Origin of measurements: paper PMC10364322
